experimental_target: recombinant human AChE (Homo sapiens, UniProt P22303)
Construct: gift of Dr Florian Nachon (IRBA, Brétigny-sur-Orge, France)
Sequence (P22303 32-614): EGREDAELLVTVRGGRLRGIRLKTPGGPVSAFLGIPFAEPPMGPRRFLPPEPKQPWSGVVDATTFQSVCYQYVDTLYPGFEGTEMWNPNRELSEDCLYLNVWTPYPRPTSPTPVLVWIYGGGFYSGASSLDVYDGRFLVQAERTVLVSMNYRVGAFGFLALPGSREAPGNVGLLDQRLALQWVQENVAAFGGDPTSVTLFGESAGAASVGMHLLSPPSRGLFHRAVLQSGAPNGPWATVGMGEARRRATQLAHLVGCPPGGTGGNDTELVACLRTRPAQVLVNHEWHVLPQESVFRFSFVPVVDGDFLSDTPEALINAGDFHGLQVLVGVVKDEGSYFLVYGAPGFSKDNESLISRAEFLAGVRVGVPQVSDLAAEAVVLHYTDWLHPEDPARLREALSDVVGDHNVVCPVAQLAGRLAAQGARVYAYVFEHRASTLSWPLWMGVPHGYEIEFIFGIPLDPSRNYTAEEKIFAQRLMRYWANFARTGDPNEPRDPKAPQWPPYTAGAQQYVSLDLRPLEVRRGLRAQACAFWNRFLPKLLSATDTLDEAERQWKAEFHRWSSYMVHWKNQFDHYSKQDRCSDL
assay: Inhibition of AChE (modified Ellman method, Hunter–Downs evaluation); note: ATCh 0.05–0.50 mM
Format: biochemical
measurement_setup: read-out: AChE Ki
measured_attribute: Ki
# output: number + unit

>  <molecule_smiles>
CC(C)(C)C1=CC(=O)C=C(SCCO)C1=O

>  <measured_attribute>
Ki

>  <data_value>
80 µM

$$$$
>  <molecule_smiles>
CC(C)(C)C1=CC(=O)C(N2CCC[C@H]2C(=O)O)=CC1=O

>  <measured_attribute>
Ki

>  <data_value>
21 µM

$$$$
>  <molecule_smiles>
CC(C)(C)C1=CC(=O)C=C(Sc2ccc3ccccc3c2)C1=O

>  <measured_attribute>
Ki

>  <data_value>
30 µM

$$$$
>  <molecule_smiles>
CC(C)(C)C1=CC(=O)C=C(SCCc2ccccc2)C1=O

>  <measured_attribute>
Ki

>  <data_value>
24 µM

$$$$
>  <molecule_smiles>
CC(C)(C)C1=CC(=O)C=C(N[C@@H](Cc2ccccc2)C(=O)O)C1=O

>  <measured_attribute>
Ki

>  <data_value>
59 µM

$$$$
>  <molecule_smiles>
COc1ccc(SC2=CC(=O)C=C(C(C)(C)C)C2=O)cc1

>  <measured_attribute>
Ki

>  <data_value>
85 µM

$$$$

Q: Tell me Ki reported for `CC(C)(C)C1=CC(=O)C(SCCO)=CC1=O`
Ans: 57 µM

Q: Provide Ki value for the following compound: `CC(C)(C)C1=CC(=O)C=C(SC2CCCC2)C1=O`
Ans: 56 µM

Q: Give the value of Ki reported for the following: `CC(C)(C)C1=CC(=O)C(SC2CCCC2)=CC1=O`
Ans: 29 µM

Q: Output measured Ki for this item: `CC(C)(C)C1=CC(=O)C=C(Sc2ccc(O)cc2)C1=O`
Ans: 37 µM

Q: Determine its reported Ki: `CC(C)(C)C1=CC(=O)C=C(Sc2ccccc2)C1=O`
Ans: 136 µM
